The origin of these recorded values is patent US7772271B2.

molecule | melting point
CCCS(=O)(=O)Nc1ccc(-c2c(C#N)c3cc(C(=O)N4CCCC4)ccc3n2C2CCC2)cc1 [Compound 3097] | 200 to 202 °C
C[C@@H](OC(=O)Nc1ccc(-c2c(C#N)c3ccc(-c4ncccc4C#N)cc3n2C2CCC2)cc1)C1CC1 [Compound 3243] | 183 to 185 °C
CC(OC(=O)Nc1ccc(-c2c(C#N)c3ccc(OC4CCOC4)cc3n2C2CC2)cc1)C(C)(C)C (stereo not shown) [Compound 1447] | 220 to 222 °C
C[C@@H](OC(=O)Nc1ccc(-c2c(C#N)c3ccc(OC4CCS(=O)(=O)CC4)cc3n2C2CCC2)cc1)C(F)(F)F [Compound 3187] | 243 to 249 °C
CCCS(=O)(=O)Nc1ccc(-c2c(C#N)c3ccc(Oc4nccc(C(F)(F)F)n4)cc3n2CC2CC2)c(C)c1 [Compound 2981] | 174 to 177 °C
CC(C)S(=O)(=O)Nc1ccc(-c2c(C#N)c3ccc(N4CCOCC4)cc3n2C2CCC2)cc1 [Compound 2801] | 220 °C
C[C@@H](OC(=O)Nc1ccc(-c2c(C#N)c3ccc(N4CCCC4)cc3n2C2CCC2)cc1)C(F)(F)F [Compound 2961] | 246 to 249 °C
